# experimentNotes: chemical genetic growth profiling, strain panel (AID 1159580);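 note: tested at 20 µM; growth read once vehicle control cultures reached saturation at 30 °C; 1 = growth at the plate median or of vehicle wells; lower values mean less growth of the strain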
# experimentalSetup: S. cerevisiae deletion strains, growth OD, locus YDL035C, strain GPR1, stronger effect = lower value
In all, about 5,500 compounds went through this assay and about 2,000 (36%) were called active. Not shown: some 18% with an inconclusive outcome. The list shows a part of the results.

- compound: "C=C(C)[C@@H]1[C@H]2OC(=O)[C@@H]1[C@]1(O)C[C@H]3O[C@]34C(=O)O[C@H]2[C@]14C"
  normalized growth: 0.987
- compound: "CCOC(=O)C1(O)Oc2cc(OC)cc(OC)c2C(=O)C1c1ccccc1 (stereo unspecified)"
  normalized growth: 0.984
- compound: "C=Cc1c2[nH]c(c1C)C=c1[nH]c(c(C)c1C=C)=CC1N=C(C=c3[nH]c(c(C)c3CCC(=O)O)=C2)C(CCC(=O)O)=C1C (stereo unspecified)"
  normalized growth: 0.975
- compound: "CC(=O)OCC(=O)[C@@]1(O)CCC2C3CCC4=CC(=O)CC[C@]4(C)C3C(=O)C[C@@]21C (stereo partly specified)"
  normalized growth: 1
- compound: "O=C(O)C1(O)C[C@@H](O)C(O)[C@H](O)C1 (stereo partly specified)"
  normalized growth: 0.99
- compound: "COc1cc2c(cc1OC)C1C(=O)c3c(OC)cc4c(c3OC1CO2)CCC(C)(C)O4 (stereo unspecified)"
  normalized growth: 1
- compound: "CC(C(=O)O)c1cccc(Oc2ccccc2)c1 (stereo unspecified)"
  normalized growth: 0.983
- compound: "CC(N)C(=O)OC(C)(C)Cc1ccc(Cl)cc1 (stereo unspecified)"
  normalized growth: 0.98
- compound: "CC[C@H](/C=C/C(C)C1CCC2C3CCC4=CC(=O)CC[C@]4(C)C3CC[C@]12C)C(C)C (stereo partly specified)"
  normalized growth: 1.02
- compound: "O=C(CC[N+](=O)[O-])OC[C@H]1O[C@@H](O)[C@H](OC(=O)CC[N+](=O)[O-])[C@@H](OC(=O)CC[N+](=O)[O-])[C@@H]1OC(=O)CC[N+](=O)[O-]"
  normalized growth: 1.08
- compound: "OCCN1C[C@@H](O)[C@@H](O)C(O)C1CO (stereo partly specified)"
  normalized growth: 1.01
- compound: "NCCSSCCN"
  normalized growth: 1.01
- compound: "CCOC(=O)C(=O)C1(C(=O)OCC)Oc2cc(OC)cc(OC)c2C(=O)C1c1ccccc1 (stereo unspecified)"
  normalized growth: 0.967
- compound: "CC(=O)NC1SCCC1=O (stereo unspecified)"
  normalized growth: 1.03
- compound: "COc1ccc(OC)c(C(O)C(C)N)c1 (stereo unspecified)"
  normalized growth: 1.01
- compound: "CC(=O)OCC(=O)[C@H]1CCC2C3CCC4=CC(=O)CC[C@]4(C)C3CC[C@@]21C (stereo partly specified)"
  normalized growth: 0.86
- compound: "O=C(O)c1c2ccccc2cc2ccccc12"
  normalized growth: 1
- compound: "OCC(O)C(O)C(O)CO (stereo unspecified)"
  normalized growth: 1.04
- compound: "CCC(=O)O[C@H]1CCC2C3CCC4=CC(=O)CC[C@]4(C)C3CC[C@@]21C (stereo partly specified)"
  normalized growth: 0.892
- compound: "COc1ccc2c(c1OC)C(=O)O[C@H]2[C@H]1c2cc3c(cc2CCN1C)OCO3"
  normalized growth: 1
- compound: "COc1ccc2cc([C@H](C)C(=O)O)ccc2c1"
  normalized growth: 0.984
- compound: "O=C(O)c1cc2ccccc2c(Cc2c(O)c(C(=O)O)cc3ccccc23)c1O"
  normalized growth: 1.01
- compound: "CC(=O)C1CCC2C3CC(=O)C4=CC(=O)CCC4(C)C3CCC12C (stereo unspecified)"
  normalized growth: 0.971
- compound: "CC(CCc1ccccc1)NC(C)C(O)c1ccc(O)cc1 (stereo unspecified)"
  normalized growth: 0.977
- compound: "CCCCCCCCCCCCCCCC[N+](C)(C)C"
  normalized growth: 0.0499
- compound: "NCC1CCC(C(=O)O)CC1 (stereo unspecified)"
  normalized growth: 0.985

###

Parameter: normalized growth. Scope: all listed entries.
# experimentNotes: chemical genetic growth profiling, strain panel (AID 1159580)
# experimentalSetup: S. cerevisiae deletion strains, growth OD, locus YHR087W, strain rtc3, stronger effect = lower value
Out of some 5,500 compounds screened, about 2,000 (36%) were called active. Roughly 18% stayed inconclusive and do not appear here. This is one part of the list.

- structureSmilesString: "CCOC(=O)C1CCN(C(=S)Nc2ccccc2C(F)(F)F)CC1"
  normalized growth: "1.02 (inactive)"
- structureSmilesString: "CC1=C(OS(=O)(=O)c2cc(C)c(Cl)cc2Cl)C(=O)CC1"
  normalized growth: "0.974 (inactive)"
- structureSmilesString: "CCOC(=O)c1cnc2cc(C)nn2c1C"
  normalized growth: "1.01 (inactive)"
- structureSmilesString: "CSc1nnnn1-c1c(C)cccc1C"
  normalized growth: "0.988 (inactive)"
- structureSmilesString: "COc1cc2c(cc1OC)CC(=O)OC2"
  normalized growth: "0.997 (inactive)"

###

# experimentNotes: chemical genetic growth profiling, strain panel (AID 1159580);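 note: tested at 20 µM; growth read once vehicle control cultures reached saturation at 30 °C; 1 = growth at the plate median or of vehicle wells; lower values mean less growth of the strain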
# experimentalSetup: S. cerevisiae deletion strains, growth OD, locus YMR307W, strain GAS1, stronger effect = lower value
About 2,000 (36%) of roughly 5,500 compounds were called active. About 18% were inconclusive and are not listed. Some of the results follow.

- compound: "C=Cc1c2[nH]c(c1C)Cc1[nH]c(c(C)c1C=C)C=C1N=C(C=c3[nH]c(c(C)c3CCC(=O)O)=C2)C(CCC(=O)O)=C1C"
  normalized growth: 1.01
- compound: "CCC(C)C(=O)O[C@H]1[C@H](O)C2C(CN3CC(C)CCC3[C@@]2(C)O)C2C[C@]34O[C@]5(O)C(OC(=O)C(C)(O)C(C)O)CC[C@@]3(C)C5C(OC(C)=O)[C@@H](OC(C)=O)C4[C@@]21O (stereo partly specified)"
  normalized growth: 0.987
- compound: "CCCCCCCCCCCCCCCC(=O)OC/C=C(C)/C=C/C=C(C)/C=C/C1=C(C)CCCC1(C)C"
  normalized growth: 1
- compound: "C[C@@H](NCCc1ccc(O)cc1)[C@@H](O)c1ccc(O)cc1"
  normalized growth: 1.02
- compound: "CCS(=O)CCSP(=O)(OC)OC (stereo unspecified)"
  normalized growth: 1
- compound: "C[C@@H]1O[C@@H](O[C@H]2C[C@@H](O)[C@]3(CO)[C@H]4[C@H](O)C[C@]5(C)[C@@H](C6=CC(=O)OC6)CC[C@]5(O)[C@@H]4CC[C@]3(O)C2)[C@H](O)[C@H](O)[C@H]1O"
  normalized growth: 0.995

###

Parameter: normalized growth. Scope: all listed entries.
# experimentNotes: chemical genetic growth profiling, strain panel (AID 1159580);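 note: tested at 20 µM; growth read once vehicle control cultures reached saturation at 30 °C; 1 = growth at the plate median or of vehicle wells; lower values mean less growth of the strain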
# experimentalSetup: S. cerevisiae deletion strains, growth OD, locus YNL067W, strain RPL9B, stronger effect = lower value
The whole screen tested about 5,500 compounds, of which about 2,000 (36%) were called active. About 18% were inconclusive and are not listed. The list shows a part of the results.

- structureSmilesString: "COc1ccc2c(C)cc(=O)oc2c1"
  normalized growth: "1.01 (inactive)"
- structureSmilesString: "NC(=O)c1ccc[n+]([C@@H]2O[C@H](COP(=O)([O-])OP(=O)(O)OC[C@H]3O[C@@H](n4cnc5c(N)ncnc54)[C@H](O)[C@@H]3O)[C@@H](O)[C@H]2O)c1"
  normalized growth: "1.01 (inactive)"
- structureSmilesString: "CCOC(=O)[C@H](CCc1ccccc1)N[C@H]1CCc2ccccc2N(CC(=O)O)C1=O"
  normalized growth: "0.996 (inactive)"

###

# experimentNotes: chemical genetic growth profiling, strain panel (AID 1159580);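 note: tested at 20 µM; growth read once vehicle control cultures reached saturation at 30 °C; 1 = growth at the plate median or of vehicle wells; lower values mean less growth of the strain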
# experimentalSetup: S. cerevisiae deletion strains, growth OD, locus YNL307C, strain MCK1, stronger effect = lower value
The campaign covered roughly 5,500 compounds. About 2,000 (36%) were called active. Roughly 18% stayed inconclusive and do not appear here. The list shows a part of the results.
quantityMeasured: normalized growth

- compound: "O=C(O)c1cc2ccccc2c(Cc2c(O)c(C(=O)O)cc3ccccc23)c1O"
  quantitativeReadout: 0.996
- compound: "C[N+](C)(C)CCOC(N)=O"
  quantitativeReadout: 0.982
- compound: "CN(C)c1ccc(C(=C2C=CC(=[N+](C)C)C=C2)c2ccc(N(C)C)cc2)cc1"
  quantitativeReadout: 0.521
- compound: "CCOC(=O)C(=O)C1(C(=O)OCC)Oc2cc(OC)cc(OC)c2C(=O)C1c1ccccc1 (stereo not drawn)"
  quantitativeReadout: 0.888
- compound: "C=C1C([C@]2(C)C(CC(=O)OC)[C@@](C)(COC(C)=O)OC(=O)C[C@@H]2OC(C)=O)[C@@H](OC=O)[C@H](OC(=O)C(OC(C)=O)C(C)CC)[C@@]2(C)[C@H](c3ccoc3)CC(=O)C12O (stereo partly drawn)"
  quantitativeReadout: 1.02
- compound: "C=C1C2CC[C@H]3[C@]4(C)C[C@H](OC5OC(CO)C(OS(=O)(=O)O)C(OS(=O)(=O)O)C5OC(=O)CC(C)C)C[C@@H](C(=O)O)[C@H]4CC[C@]3(C2)[C@H]1O (stereo partly drawn)"
  quantitativeReadout: 0.986
- compound: "CC(C)CC(NC(=O)C(Cc1ccccc1)NC(=O)CNC(=O)CNC(=O)C(N)Cc1ccc(O)cc1)C(=O)O (stereo not drawn)"
  quantitativeReadout: 0.987
- compound: "CC(CCc1ccccc1)NC(C)C(O)c1ccc(O)cc1 (stereo not drawn)"
  quantitativeReadout: 0.987
- compound: "CCOC(=O)C(Cc1ccc(O)cc1)NC(C)=O (stereo not drawn)"
  quantitativeReadout: 1
- compound: "NCCSSCCN"
  quantitativeReadout: 1.01
- compound: "O=C(O)c1cc2ccccc2[nH]1"
  quantitativeReadout: 1.02
- compound: "COC1=CC(=O)C[C@@H](C)[C@]12Oc1c(Cl)c(OC)cc(OC)c1C2=O"
  quantitativeReadout: 1
- compound: "CC(N)C(=O)OC(C)(C)Cc1ccc(Cl)cc1 (stereo not drawn)"
  quantitativeReadout: 0.972
- compound: "COc1ccc2c3c1O[C@H]1C[C@@H](O)C=C[C@@]31CCN(C)C2"
  quantitativeReadout: 1.05
- compound: "C=C1C([C@]2(C)C(CC(=O)OC)[C@@](C)(COC(C)=O)OC(=O)C[C@@H]2OC(C)=O)[C@@H](OC=O)[C@H](OC(=O)C(O)C(C)CC)[C@@]2(C)[C@H](c3ccoc3)CC(=O)C12O (stereo partly drawn)"
  quantitativeReadout: 1.01
- compound: "CN[C@@H](C)[C@@H](O)c1ccccc1"
  quantitativeReadout: 0.992
- compound: "CCOC(=O)c1c(C)cc(O)c(C)c1O"
  quantitativeReadout: 0.875
- compound: "CC(C)(OC(=O)c1ccccc1)[C@@H]1Cc2cc3ccc(=O)oc3cc2O1"
  quantitativeReadout: 0.975
- compound: "CCOC(=O)[C@H](CCc1ccccc1)N[C@H]1CCc2ccccc2N(CC(=O)O)C1=O"
  quantitativeReadout: 0.986
- compound: "CCOC(=O)C1(O)Oc2cc(OC)cc(OC)c2C(=O)C1c1ccccc1 (stereo not drawn)"
  quantitativeReadout: 0.961
- compound: "CCCCCCCCCCCCCCCC[N+](C)(C)C"
  quantitativeReadout: 0.0664
- compound: "Cc1cccc(C)c1OCC(C)N (stereo not drawn)"
  quantitativeReadout: 1.02
- compound: "CC(C)OC(=O)C(C)(C)Oc1ccc(C(=O)c2ccc(Cl)cc2)cc1"
  quantitativeReadout: 0.973
